Tested On: TaTT (transaminase from Thermobaculum terrenum) (Thermobaculum terrenum, UniProt D1CCW1, G40V/R42S/Y100F/S114R)
Construct: gene ilvE; N-terminal His6TEV-tag, expressed in E. coli BL21(DE3)pLys; tag cut by TEV for crystals (309 visible residues, 5 N-terminal and 3 C-terminal residues invisible); functional dimer
Sequence (D1CCW1 entry or part of it G40V/R42S/Y100F/S114R): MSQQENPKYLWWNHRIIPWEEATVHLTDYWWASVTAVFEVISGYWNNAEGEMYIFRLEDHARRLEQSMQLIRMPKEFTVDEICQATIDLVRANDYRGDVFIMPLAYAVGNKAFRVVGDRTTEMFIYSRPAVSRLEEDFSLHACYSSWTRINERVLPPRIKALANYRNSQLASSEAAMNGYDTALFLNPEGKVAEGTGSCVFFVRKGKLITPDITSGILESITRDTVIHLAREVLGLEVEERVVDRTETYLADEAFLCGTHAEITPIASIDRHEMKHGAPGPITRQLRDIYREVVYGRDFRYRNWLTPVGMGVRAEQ
Protocol Description: pre-steady-state half-reaction of the PLP form, aldimine decrease at […] nm
Assay type: biochemical
Test Parameters: mP3O1; 50 mM CHES pH 9.0, 40 °C; no amino acceptor; constant from kobs vs. substrate; read-out: pH 9.0, CHES buffer, 40°C / KD, / mM
Property: Kd (mM)
Please state the figure in mM; there is no need to write the unit.

I would be grateful if you could share the reported Kd for C[C@@H](N)c1ccccc1 [R-PEA, (R)-(+)-1-phenylethylamine] .
1.5
